Origin of values: patent US9845323B2

# Measurement target: Class A beta-lactamase SHV 18 (K. pneumoniae ATCC 700603) (Klebsiella pneumoniae)
# Test name: Beta-lactamase enzyme inhibition (Nitrocefin, crude enzyme)
# Type: biochemical
# Settings: K. pneumoniae ATCC 700603 (SHV 18), Nitrocefin 100 μM, read-out: Beta-lactamase enzyme inhibition IC50
pIC50: −log10 of the molar value.
Quantity measured: pIC50

{"columns": ["Molecule", "Measurement target", "Quantity measured", "Reported result"],
 "data": [
  ["O=C1N2C[C@@H](CC[C@H]2c2nnc(CCc3ccccc3)o2)N1OS(=O)(=O)O [Example 6]", "Class A beta-lactamase SHV 18 (K. pneumoniae ATCC 700603) (Klebsiella pneumoniae)", "pIC50", 7.49]
]}

* * *

# Measurement target: Class A beta-lactamase SHV 18 (K. pneumoniae ATCC 700603) (Klebsiella pneumoniae, UniProt P0AD64)
# Sequence (P0AD64 22-286 limits assumed): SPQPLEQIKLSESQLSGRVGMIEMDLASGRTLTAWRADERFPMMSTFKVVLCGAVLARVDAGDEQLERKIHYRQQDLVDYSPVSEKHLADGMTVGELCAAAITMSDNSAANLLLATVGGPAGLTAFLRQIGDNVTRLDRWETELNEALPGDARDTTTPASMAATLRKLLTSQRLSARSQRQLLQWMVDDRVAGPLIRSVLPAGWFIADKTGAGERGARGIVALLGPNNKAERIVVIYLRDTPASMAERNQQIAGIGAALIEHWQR
# Test name: Beta-lactamase enzyme inhibition (Nitrocefin, crude enzyme)
# Type: biochemical
# Settings: read-out: Beta-lactamase enzyme inhibition IC50, K. pneumoniae ATCC 700603 (SHV 18), Nitrocefin 100 μM
pIC50: −log10 of the molar value.
Reported pIC50 values for the following compounds.

{"columns": ["Compound", "pIC50"],
 "data": [
  ["O=C1N2C[C@@H](CC[C@H]2c2nnc(CC(c3ccccc3)c3ccccc3)o2)N1OS(=O)(=O)O [Example 9]", 8.40],
  ["O=C1N2C[C@@H](CC[C@H]2c2nnc(Cc3ccc(O)cc3)o2)N1OS(=O)(=O)O [Example 13]", 7.89],
  ["O=C1N2C[C@@H](CC[C@H]2c2nnc(CC3CNC3)o2)N1OS(=O)(=O)O [Example 1]", 7.57],
  ["O=C1N2C[C@@H](CC[C@H]2c2nnc(CC3CCNCC3)o2)N1OS(=O)(=O)O [Example 3]", 7.41],
  ["O=C1N2C[C@@H](CC[C@H]2c2nnc(C(c3ccccc3)c3ccccc3)o2)N1OS(=O)(=O)O [Example 8]", 7.43],
  ["NC(=O)[C@@H]1CC[C@@H]2CN1C(=O)N2OS(=O)(=O)O [Avibactam, avibactam, reference compound]", 7.01],
  ["O=C1N2C[C@@H](CC[C@H]2c2nnc(Cc3ccccc3)o2)N1OS(=O)(=O)O [Example 5]", 7.48],
  ["O=C1N2C[C@@H](CC[C@H]2c2nnc(CC3CNCCN3)o2)N1OS(=O)(=O)O (some centres unmarked) [Example 4]", 7.57],
  ["CN(C)c1ccc(Cc2nnc([C@@H]3CC[C@@H]4CN3C(=O)N4OS(=O)(=O)O)o2)cc1 [Example 12]", 8.00],
  ["O=C1N2C[C@@H](CC[C@H]2c2nnc(CCCc3ccccc3)o2)N1OS(=O)(=O)O [Example 7]", 7.40],
  ["O=C1N2C[C@@H](CC[C@H]2c2nnc(C[C@@H]3CCCN3)o2)N1OS(=O)(=O)O [Example 2]", 7.57]
]}

* * *

# Measurement target: Class D beta-lactamase OXA 23 (A baumannii NCTC 13301) (Acinetobacter baumannii, UniProt Q9L4P2)
# Construct: preincubated mixture of crude enzyme and the compounds; endogenous in cells
# Sequence (Q9L4P2 18-273): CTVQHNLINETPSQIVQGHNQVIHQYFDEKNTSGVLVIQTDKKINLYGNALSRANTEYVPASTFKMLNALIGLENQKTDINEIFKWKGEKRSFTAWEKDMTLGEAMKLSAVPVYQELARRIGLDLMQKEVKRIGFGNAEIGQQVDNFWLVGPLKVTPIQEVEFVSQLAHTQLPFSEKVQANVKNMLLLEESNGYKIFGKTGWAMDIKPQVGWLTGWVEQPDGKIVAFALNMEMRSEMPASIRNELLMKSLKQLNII
# Test name: Beta-lactamase enzyme inhibition (Nitrocefin, crude enzyme)
# Settings: A baumannii NCTC 13301 (OXA 23), Nitrocefin 100 μM
pIC50: −log10 of the molar value.

{"columns": ["Molecule", "pIC50"],
 "data": [
  ["Nc1ccc(Cc2nnc([C@@H]3CC[C@@H]4CN3C(=O)N4OS(=O)(=O)O)o2)cc1", 6.97],
  ["O=C1N2C[C@@H](CC[C@H]2c2nnc(CC3CCNCC3)o2)N1OS(=O)(=O)O", 5.24],
  ["O=C1N2C[C@@H](CC[C@H]2c2nnc(C(c3ccccc3)c3ccccc3)o2)N1OS(=O)(=O)O", 8.10],
  ["O=C1N2C[C@@H](CC[C@H]2c2nnc(CC3CNCCN3)o2)N1OS(=O)(=O)O (some centres unmarked)", 6.39],
  ["CN(C)c1ccc(Cc2nnc([C@@H]3CC[C@@H]4CN3C(=O)N4OS(=O)(=O)O)o2)cc1", 7.01],
  ["O=C1N2C[C@@H](CC[C@H]2c2nnc(Cc3ccccc3)o2)N1OS(=O)(=O)O", 6.55],
  ["COc1ccc(Cc2nnc([C@@H]3CC[C@@H]4CN3C(=O)N4OS(=O)(=O)O)o2)cc1", 7.10],
  ["O=C1N2C[C@@H](CC[C@H]2c2nnc(CC(c3ccccc3)c3ccccc3)o2)N1OS(=O)(=O)O", 6.62],
  ["O=C1N2C[C@@H](CC[C@H]2c2nnc(CCc3ccccc3)o2)N1OS(=O)(=O)O", 6.66],
  ["O=C1N2C[C@@H](CC[C@H]2c2nnc(Cc3ccc(O)cc3)o2)N1OS(=O)(=O)O", 7.41],
  ["O=C1N2C[C@@H](CC[C@H]2c2nnc(Cc3ccc(Cl)cc3)o2)N1OS(=O)(=O)O", 6.97],
  ["O=C1N2C[C@@H](CC[C@H]2c2nnc(CC3CNC3)o2)N1OS(=O)(=O)O", 5.40],
  ["O=C1N2C[C@@H](CC[C@H]2c2nnc(CCCc3ccccc3)o2)N1OS(=O)(=O)O", 6.94],
  ["O=C1N2C[C@@H](CC[C@H]2c2nnc(C[C@@H]3CCCN3)o2)N1OS(=O)(=O)O", 4.89]
]}

* * *

Reported IC50 values for the following compounds.
# System: Class C beta-lactamase CMY/DHA (E. coli M50)
# Test name: Beta-lactamase enzyme inhibition (Nitrocefin, crude enzyme)
# Format: biochemical
# Settings: Nitrocefin 100 μM

{"columns": ["Compound", "Measurement target", "Reported relation", "IC50 (nM)"],
 "data": [
  ["O=C1N2C[C@@H](CC[C@H]2c2nnc(CCCc3ccccc3)o2)N1OS(=O)(=O)O", "Class C beta-lactamase CMY/DHA (E. coli M50)", "=", 4],
  ["O=C1N2C[C@@H](CC[C@H]2c2nnc(Cc3ccc(Cl)cc3)o2)N1OS(=O)(=O)O", "Class C beta-lactamase CMY/DHA (E. coli M50)", "=", 10],
  ["CN(C)c1ccc(Cc2nnc([C@@H]3CC[C@@H]4CN3C(=O)N4OS(=O)(=O)O)o2)cc1", "Class C beta-lactamase CMY/DHA (E. coli M50)", "=", 6],
  ["NC(=O)[C@@H]1CC[C@@H]2CN1C(=O)N2OS(=O)(=O)O [Avibactam, avibactam, reference compound]", "Class C beta-lactamase CMY/DHA (E. coli M50)", "=", 146],
  ["O=C(O)[C@H]1/C(=C/CO)O[C@@H]2CC(=O)N21 [Clavulanic acid, clavulanic acid, reference compound]", "Class C beta-lactamase CMY/DHA (E. coli M50)", ">", 10000]
]}
